Tested on: 379773-124-R-J2-PDC spheroid viability
method.description: Anticancer human tumor 379773-124-R-J2-PDC patient-derived endometrial carcinoma cell line growth inhibition [POLQ]
settings: second compound 1 µM; first compound 1 µM; stronger effect = lower value; spheroids with HUVEC and MSC
test.readout: viability, T/C

Item C=CC(=O)N1CCN(c2nc(=O)n(-c3c(C)ccnc3C(C)C)c3nc(-c4c(O)cccc4F)c(F)cc23)C(C)C1 (stereo not given) + Cc1cccc(N(C)C(=O)C2C(O)CCN2c2nc(C)cc(C(F)(F)F)c2C#N)c1 has what recorded viability, T/C?
75.2%

And the next one, COc1ccc([C@@H](O)c2cc(-c3ncnc4cc(N5CCOCC5)ccc34)c(F)cc2Cl)nn1 + Cc1cccc(N(C)C(=O)C2C(O)CCN2c2nc(C)cc(C(F)(F)F)c2C#N)c1 ?
81.8%

And the next one, COc1cccc2c1C(=O)c1c(O)c3c(c(O)c1C2=O)CC(O)(C(=O)CO)CC3OC1CC(N)C(O)C(C)O1 (stereo not given) + Cc1cccc(N(C)C(=O)C2C(O)CCN2c2nc(C)cc(C(F)(F)F)c2C#N)c1 ?
5.67%

And the next one, CC(C)n1c(=O)n(C)c2cnc3cc(F)c(-c4ccc(OCCCN5CCCCC5)nc4)cc3c21 + COC1C(OC(N)=O)C(O)C(Oc2ccc3c(O)c(NC(=O)c4ccc(O)c(CC=C(C)C)c4)c(=O)oc3c2C)OC1(C)C ?
71.7%

And the next one, COc1cc(C2c3cc4c(cc3C(OC3OC5COC(C)OC5C(O)C3O)C3COC(=O)C23)OCO4)cc(OC)c1O (stereo not given) + Nc1ccc(C#CCN(C(=O)Cc2ncc(C(F)(F)F)cc2C(F)(F)F)c2ccc(F)cc2)nn1 ?
62.2%

---

Tested on: 379773-124-R-J2-PDC spheroid viability
method.description: Anticancer human tumor 379773-124-R-J2-PDC cell line growth inhibition [POLQ];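 also: spheroids exposed to drugs for seven days before readout; percent viability relative to DMSO vehicle control taken as 100%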
settings: second compound 3.16 µM; first compound 0.0316 µM; stronger effect = lower value; spheroids with HUVEC and MSC
Protocol: Multicellular complex tumor spheroid response to Polymerase (POL) inhibitors (novobiocin, ART-558, RP6685) in combination with a variety of drugs and investigational agents in selected tumor cell lines The POL inhibitors (novobiocin, ART-558, and RP6685) were evaluated both individually and in combination with standard of care and investigational anticancer small molecules within a complex spheroid model of solid tumors. . […]
test.readout: viability, T/C (%)
Report only the number, with the unit % understood.

Item COc1cccc(OCCCN)c1-c1cc(Nc2cnc(C#N)cn2)n[nH]1 + COC1C(OC(N)=O)C(O)C(Oc2ccc3c(O)c(NC(=O)c4ccc(O)c(CC=C(C)C)c4)c(=O)oc3c2C)OC1(C)C has what recorded viability, T/C?
2.5

And the next one, COc1cc(C2c3cc4c(cc3C(OC3OC5COC(C)OC5C(O)C3O)C3COC(=O)C23)OCO4)cc(OC)c1O (configuration not stated) + COC1C(OC(N)=O)C(O)C(Oc2ccc3c(O)c(NC(=O)c4ccc(O)c(CC=C(C)C)c4)c(=O)oc3c2C)OC1(C)C ?
76.1

And the next one, CCc1cc2c(N3CCc4c(cc(Cn5ccnc5)cc4-c4cn(C)nc4C(F)(F)F)C3=O)ccnc2c(OC)n1 + COC1C(OC(N)=O)C(O)C(Oc2ccc3c(O)c(NC(=O)c4ccc(O)c(CC=C(C)C)c4)c(=O)oc3c2C)OC1(C)C ?
77.7

And the next one, CCCS(=O)(=O)Nc1ccc(F)c(C(=O)c2c[nH]c3ncc(-c4ccc(Cl)cc4)cc23)c1F + Nc1ccc(C#CCN(C(=O)Cc2ncc(C(F)(F)F)cc2C(F)(F)F)c2ccc(F)cc2)nn1 ?
96.5

And the next one, O=C(Nc1ccc(O)c(NS(=O)(=O)c2ccc(F)cc2)c1)c1ccc(-c2ccccc2)cc1 + Cc1cccc(N(C)C(=O)C2C(O)CCN2c2nc(C)cc(C(F)(F)F)c2C#N)c1 ?
98.3

And the next one, COc1cc2cc(C(=O)CCC(=O)O)sc2cc1OC + Nc1ccc(C#CCN(C(=O)Cc2ncc(C(F)(F)F)cc2C(F)(F)F)c2ccc(F)cc2)nn1 ?
98.9

And the next one, CNCc1ccc(-c2[nH]c3cc(F)cc4c3c2CCNC4=O)cc1 + Cc1cccc(N(C)C(=O)C2C(O)CCN2c2nc(C)cc(C(F)(F)F)c2C#N)c1 ?
86.5

And the next one, C#Cc1c(F)ccc2cc(O)cc(-c3ncc4c(N5CC6CCC(C5)N6)nc(OCC56CCCN5CC(F)C6)nc4c3F)c12 (configuration not stated) + Nc1ccc(C#CCN(C(=O)Cc2ncc(C(F)(F)F)cc2C(F)(F)F)c2ccc(F)cc2)nn1 ?
99.3

And the next one, CCc1c2c(nc3ccc(O)cc13)-c1cc3c(c(=O)n1C2)COC(=O)[C@]3(O)CC + Cc1cccc(N(C)C(=O)C2C(O)CCN2c2nc(C)cc(C(F)(F)F)c2C#N)c1 ?
7.52

And the next one, CC1COCCN1c1cc(C2(O)CC3CCC(C2)O3)c2cnn(-c3ccn[nH]3)c2n1 (configuration not stated) + COC1C(OC(N)=O)C(O)C(Oc2ccc3c(O)c(NC(=O)c4ccc(O)c(CC=C(C)C)c4)c(=O)oc3c2C)OC1(C)C ?
71.9

And the next one, CC1COCCN1c1cc(C2(O)CC3CCC(C2)O3)c2cnn(-c3ccn[nH]3)c2n1 (configuration not stated) + Nc1ccc(C#CCN(C(=O)Cc2ncc(C(F)(F)F)cc2C(F)(F)F)c2ccc(F)cc2)nn1 ?
83

And the next one, CNCc1ccc(-c2[nH]c3cc(F)cc4c3c2CCNC4=O)cc1 + COC1C(OC(N)=O)C(O)C(Oc2ccc3c(O)c(NC(=O)c4ccc(O)c(CC=C(C)C)c4)c(=O)oc3c2C)OC1(C)C ?
79.8

And the next one, COc1cccc(OCCCN)c1-c1cc(Nc2cnc(C#N)cn2)n[nH]1 + Nc1ccc(C#CCN(C(=O)Cc2ncc(C(F)(F)F)cc2C(F)(F)F)c2ccc(F)cc2)nn1 ?
3.53

And the next one, CC1COCCN1c1cc(C2(O)CC3CCC(C2)O3)c2cnn(-c3ccn[nH]3)c2n1 (configuration not stated) + Cc1cccc(N(C)C(=O)C2C(O)CCN2c2nc(C)cc(C(F)(F)F)c2C#N)c1 ?
70.6

And the next one, COc1ccc([C@@H](O)c2cc(-c3ncnc4cc(N5CCOCC5)ccc34)c(F)cc2Cl)nn1 + COC1C(OC(N)=O)C(O)C(Oc2ccc3c(O)c(NC(=O)c4ccc(O)c(CC=C(C)C)c4)c(=O)oc3c2C)OC1(C)C ?
81

And the next one, Cn1ncnc1[C@H]1c2n[nH]c(=O)c3cc(F)cc(c23)N[C@@H]1c1ccc(F)cc1 + Nc1ccc(C#CCN(C(=O)Cc2ncc(C(F)(F)F)cc2C(F)(F)F)c2ccc(F)cc2)nn1 ?
67.5

And the next one, COc1ccc([C@@H](O)c2cc(-c3ncnc4cc(N5CCOCC5)ccc34)c(F)cc2Cl)nn1 + Cc1cccc(N(C)C(=O)C2C(O)CCN2c2nc(C)cc(C(F)(F)F)c2C#N)c1 ?
87.3
